Each recorded value in this set is attributed to patent US9078909B2.

tested on: epithelial sodium channel (ENaC) (Mus musculus, UniProt Q61180+Q9WU38+Q9WU39)
Construct: Mouse kidney M-1 cells were cultivated in DMEM; endogenous in cells; host or cells: mouse kidney M-1 cells (cortical collecting duct line), dexamethasone-treated, on transwell filters
test protocol: Ussing Chamber assay: inhibition of amiloride sensitive short circuit current (I_sc) in M-1 cells
Assay type: cell-based
experimental conditions: Ussing Chamber; mouse kidney M-1 cells on transwell filters; short circuit current; compound added to apical solution; 37° C.; read-out: IC50
Protocol: Ussing Chamber: Mouse kidney M-1 cells were cultivated in DMEM containing 5% FCS and 5 μM dexamethasone for 10 to 12 days on polyester transwell filters. […] Short circuit currents (I_sc) were measured in the voltage-clamp mode using an in-house built amplifier (Boehringer Ingelheim, Biberach) with the software package Lab View for data acquisition and analysis. The transepithelial electrical resistance (TEER) was determined by the application of voltage steps of ±5 mV every 5 sec. […]
pIC50: −log10 of the molar value.
attribute measured: pIC50

Study these solved cases before continuing.
CCOC(=O)c1cccc(CCNC(=O)CN2CCC(NC(N)=NC(=O)c3nc(Cl)c(N)nc3N)CC2)c1 ... 8.40
CCSCCN1CCC(NC(N)=NC(=O)c2nc(Cl)c(N)nc2N)CC1 ... 8.00
CC(C)(C)NC(=O)CN1CCC(NC(N)=NC(=O)c2nc(Cl)c(N)nc2N)CC1 ... 8.40
NC(=NC(=O)c1nc(Cl)c(N)nc1N)NC1CCN(C(C(=O)NCc2ccccc2)C(=O)NCc2ccccc2)CC1 ... 8.00
CCOC(=O)CN1CCC(NC(N)=NC(=O)c2nc(Cl)c(N)nc2N)CC1 ... 8.15
CCOC(=O)C(C(=O)OCC)N1CCC(NC(N)=NC(=O)c2nc(Cl)c(N)nc2N)CC1 ... 8.05

[P] Cn1ccc(NC(=O)CN2CCC(NC(N)=NC(=O)c3nc(Cl)c(N)nc3N)CC2)cc1=O
[Q] NC(=NC(=O)c1nc(Cl)c(N)nc1N)NC1CCN(CC(=O)NCc2ccccc2SC(F)(F)F)CC1
Which has the smaller recorded pIC50, P or Q ? When you have decided, please share the label of that item. P

---

tested on: epithelial sodium channel (ENaC) (Mus musculus, UniProt Q61180+Q9WU38+Q9WU39)
Construct: Mouse kidney M-1 cells were cultivated in DMEM; endogenous in cells; host or cells: mouse kidney M-1 cells (cortical collecting duct line), dexamethasone-treated, on transwell filters
Sequence (Q61180 1-699): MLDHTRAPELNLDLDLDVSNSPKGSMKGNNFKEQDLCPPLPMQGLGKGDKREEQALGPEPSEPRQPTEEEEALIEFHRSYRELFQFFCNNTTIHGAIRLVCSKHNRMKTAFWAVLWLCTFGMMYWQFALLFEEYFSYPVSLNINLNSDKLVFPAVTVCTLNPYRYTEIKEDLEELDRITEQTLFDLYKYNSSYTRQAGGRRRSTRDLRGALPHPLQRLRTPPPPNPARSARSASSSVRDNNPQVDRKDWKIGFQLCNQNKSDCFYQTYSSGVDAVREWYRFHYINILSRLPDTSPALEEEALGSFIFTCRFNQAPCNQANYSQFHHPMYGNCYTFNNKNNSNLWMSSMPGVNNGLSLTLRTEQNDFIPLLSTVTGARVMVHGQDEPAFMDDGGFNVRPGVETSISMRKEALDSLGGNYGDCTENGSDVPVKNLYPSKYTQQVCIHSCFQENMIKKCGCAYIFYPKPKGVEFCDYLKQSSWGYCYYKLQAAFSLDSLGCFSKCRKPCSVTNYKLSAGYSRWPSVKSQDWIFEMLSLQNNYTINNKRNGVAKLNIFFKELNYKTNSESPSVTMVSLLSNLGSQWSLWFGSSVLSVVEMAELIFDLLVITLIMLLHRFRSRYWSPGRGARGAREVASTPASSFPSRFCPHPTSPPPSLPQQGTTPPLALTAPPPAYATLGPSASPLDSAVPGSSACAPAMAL
Sequence (Q9WU38 1-638): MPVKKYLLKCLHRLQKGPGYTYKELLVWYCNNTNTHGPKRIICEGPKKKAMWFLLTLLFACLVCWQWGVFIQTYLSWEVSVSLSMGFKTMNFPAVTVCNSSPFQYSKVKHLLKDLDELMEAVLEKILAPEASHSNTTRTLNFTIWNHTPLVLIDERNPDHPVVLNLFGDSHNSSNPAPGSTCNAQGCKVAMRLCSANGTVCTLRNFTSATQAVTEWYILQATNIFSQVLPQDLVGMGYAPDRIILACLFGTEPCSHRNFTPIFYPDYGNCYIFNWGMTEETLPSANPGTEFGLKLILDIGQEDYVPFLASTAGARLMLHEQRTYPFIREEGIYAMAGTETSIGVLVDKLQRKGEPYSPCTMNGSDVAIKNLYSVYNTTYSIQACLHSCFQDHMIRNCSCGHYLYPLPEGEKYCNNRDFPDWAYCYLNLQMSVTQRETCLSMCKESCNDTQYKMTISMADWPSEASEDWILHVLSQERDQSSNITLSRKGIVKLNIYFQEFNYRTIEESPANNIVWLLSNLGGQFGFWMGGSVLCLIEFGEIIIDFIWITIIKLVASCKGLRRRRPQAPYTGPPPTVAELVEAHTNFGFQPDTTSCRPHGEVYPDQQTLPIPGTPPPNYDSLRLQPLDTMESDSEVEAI
Sequence (Q9WU39 1-655): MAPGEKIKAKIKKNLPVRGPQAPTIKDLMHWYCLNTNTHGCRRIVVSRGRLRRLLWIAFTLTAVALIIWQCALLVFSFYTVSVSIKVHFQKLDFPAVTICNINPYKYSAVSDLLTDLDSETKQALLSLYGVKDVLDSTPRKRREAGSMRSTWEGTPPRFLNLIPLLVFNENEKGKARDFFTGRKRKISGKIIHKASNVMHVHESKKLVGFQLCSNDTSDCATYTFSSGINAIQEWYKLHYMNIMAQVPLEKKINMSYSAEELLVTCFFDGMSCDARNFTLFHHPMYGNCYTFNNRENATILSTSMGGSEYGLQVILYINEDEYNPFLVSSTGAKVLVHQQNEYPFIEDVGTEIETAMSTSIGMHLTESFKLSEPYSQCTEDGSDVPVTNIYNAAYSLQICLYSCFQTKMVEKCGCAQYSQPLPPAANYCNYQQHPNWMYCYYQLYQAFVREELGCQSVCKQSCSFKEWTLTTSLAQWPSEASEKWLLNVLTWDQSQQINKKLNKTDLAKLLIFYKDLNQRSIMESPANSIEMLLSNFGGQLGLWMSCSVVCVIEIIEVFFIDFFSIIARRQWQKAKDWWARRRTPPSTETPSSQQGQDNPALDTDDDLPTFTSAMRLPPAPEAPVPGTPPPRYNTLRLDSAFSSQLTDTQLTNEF
test protocol: Ussing Chamber assay: inhibition of amiloride sensitive short circuit current (I_sc) in M-1 cells
Assay type: cell-based
experimental conditions: Ussing Chamber; mouse kidney M-1 cells on transwell filters; short circuit current; compound added to apical solution; 37° C.; read-out: IC50
pIC50: −log10 of the molar value.
attribute measured: pIC50

Would you please look over these solved cases?
CCCCNC(=O)CN1CCC(NC(N)=NC(=O)c2nc(Cl)c(N)nc2N)CC1 [Example 6.6] ... 9.00
NC(=NC(=O)c1nc(Cl)c(N)nc1N)NC1CCN(CC(=O)N2CCC(C(=O)O)CC2)CC1 [Example 5.4] ... 6.75
Cc1ccc(CNC(=O)CN2CCC(NC(N)=NC(=O)c3nc(Cl)c(N)nc3N)CC2)o1 [Example 1.27] ... 8.40

[I] COC(=O)c1cccc(CNC(=O)CN2CCC(NC(N)=NC(=O)c3nc(Cl)c(N)nc3N)CC2)c1 [Example 6.5]
[II] COCCOCCOCCOCCN1CCC(NC(N)=NC(=O)c2nc(Cl)c(N)nc2N)CC1 [Example 4.12]
Higher pIC50 between I and II ? Select an item and report its label. I
(I: 8.22, II: 7.26)

[A] CN(C)CCNC(=O)c1ccccc1NC(=O)CN1CCC(NC(=N)NC(=O)c2nc(Cl)c(N)nc2N)CC1 [Example 3.1]
[B] NC(=NC(=O)c1nc(Cl)c(N)nc1N)NC1CCN(CC(=O)NC2CCSCC2)CC1 [Example 1.31]
Kindly compare A with B and tell me which has the lower pIC50 figure. // respond with label for picked entry A

[I] NC(=NC(=O)c1nc(Cl)c(N)nc1N)NC1CCN(CC(=O)Nc2cccc(C(=O)O)c2)CC1 [Example 2.2]
[II] CCCCOC(=O)CN1CCC(NC(N)=NC(=O)c2nc(Cl)c(N)nc2N)CC1 [Example 4.10]
Among I and II , whose measured pIC50 is the smaller figure? Your answer should be the label of the entry you select. I
(I: 7.51, II: 8.40)
